Exercise: state measured pKd for each of the compounds provided.
- targetUnderTest: GST-P1-1 (Homo sapiens, UniProt P09211)
- Sequence (P09211 2-210 limits assumed): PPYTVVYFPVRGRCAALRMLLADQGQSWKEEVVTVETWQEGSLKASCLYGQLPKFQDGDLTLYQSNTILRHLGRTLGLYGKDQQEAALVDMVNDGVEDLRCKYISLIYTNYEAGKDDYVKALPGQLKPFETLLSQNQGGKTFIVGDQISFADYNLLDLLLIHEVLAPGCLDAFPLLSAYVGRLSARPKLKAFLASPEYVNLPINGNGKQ
- experimentalDetails: Fluorescence binding study, dissociation constant with GST-P1-1
- cond: fluorescence titration, phosphate buffer 5 mM pH 6.5; read-out: approximate dissociation constant Kd, GST-P1-1
FYI, pKd means -log10 of a concentration in mol per litre.

So for `C=C(CC)C(=O)c1ccc(OCC(=O)NCCNC(=O)CCN2C=C/C(=C\c3sc4ccccc4[n+]3CCC(=O)NCCNC(=O)COc3ccc(C(=O)C(=C)CC)c(Cl)c3Cl)c3ccccc32)c(Cl)c1Cl` , the logged pKd turned out to be 7.54

Kindly note the recorded pKd for `C=C(CC)C(=O)c1ccc(OCC(=O)NCCCn2cc(CNC(=O)OCCCN3C=C/C(=C\c4sc5ccccc5[n+]4CCCOC(=O)NCc4cn(CCCNC(=O)COc5ccc(C(=O)C(=C)CC)c(Cl)c5Cl)nn4)c4ccccc43)nn2)c(Cl)c1Cl` , which is 7.42
